SUBJECT OF TEST: Beta-2 adrenergic receptor (Cavia porcellus)
Sequence (Q8K4Z4 whole entry): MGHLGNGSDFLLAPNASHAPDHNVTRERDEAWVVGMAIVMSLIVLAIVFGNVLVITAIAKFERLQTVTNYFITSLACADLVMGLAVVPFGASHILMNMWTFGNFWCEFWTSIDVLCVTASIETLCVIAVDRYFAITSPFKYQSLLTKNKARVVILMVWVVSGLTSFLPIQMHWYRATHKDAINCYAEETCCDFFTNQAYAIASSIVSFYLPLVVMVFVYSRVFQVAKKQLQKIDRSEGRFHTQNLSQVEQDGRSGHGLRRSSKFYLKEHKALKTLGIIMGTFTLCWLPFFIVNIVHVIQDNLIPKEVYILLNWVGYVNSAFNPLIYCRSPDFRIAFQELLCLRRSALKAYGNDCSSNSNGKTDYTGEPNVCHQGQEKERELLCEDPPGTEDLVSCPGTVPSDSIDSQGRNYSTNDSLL
EXPERIMENTAL PROTOCOL: Agonist activity at beta-2 adrenoceptor in guinea pig trachea assessed as inhibition of histamine-induced muscle contraction
pEC50: −log10 of the molar value.
MEASURE NAME: pEC50

SMILES ENTRY | SUBJECT OF TEST | MEASURE NAME | MEASURED
CS(=O)(=O)Nc1cc([C@@H](O)CNCCCCCCCCCN2CCC(OC(=O)Nc3ccccc3-c3ccc(O)c(Cl)c3)CC2)ccc1O | Beta-2 adrenergic receptor (Cavia porcellus) | pEC50 | 8.24

----------
EXPERIMENTAL PROTOCOL: Drug metabolism of the compound in human liver microsomes assessed as glucuronidation in absence of NADPH and presence of microsomal activator Brij58 and UDPGA
MEASURE NAME: microsomal CLint

SMILES ENTRY | MEASURE NAME | MEASURED
CS(=O)(=O)Nc1cc([C@@H](O)CNCCCCCCCCCN2CCC(OC(=O)Nc3ccccc3-c3ccc(O)cc3)CC2)ccc1O | microsomal CLint | 4 µL/min/mg
Cc1cc(C)c(NC(=O)OC2CCN(CCCCCCCCCNC[C@H](O)c3ccc(O)c(NS(C)(=O)=O)c3)CC2)c(-c2ccc(O)c(Cl)c2)c1 | microsomal CLint | 32 µL/min/mg
CS(=O)(=O)Nc1cc([C@@H](O)CNCCc2ccc(OCCCN3CCC(OC(=O)Nc4ccccc4-c4ccc(O)c(Cl)c4)CC3)cc2)ccc1O | microsomal CLint | 29 µL/min/mg
CS(=O)(=O)Nc1cc([C@@H](O)CNCCCCCCCCCN2C[C@@H]3[C@@H](COC(=O)Nc4ccccc4-c4ccc(O)c(Cl)c4)[C@@H]3C2)ccc1O | microsomal CLint | 13 µL/min/mg
CS(=O)(=O)Nc1cc([C@@H](O)CNCCCCCCCCCN2CCC(OC(=O)Nc3cc(F)ccc3-c3ccc(O)c(Cl)c3)CC2)ccc1O | microsomal CLint | 6 µL/min/mg
CS(=O)(=O)Nc1cc([C@@H](O)CNCCCCCCCCCCCN2CCC(OC(=O)Nc3ccccc3-c3ccc(O)c(Cl)c3)CC2)ccc1O | microsomal CLint | 16 µL/min/mg
CS(=O)(=O)Nc1cc([C@@H](O)CNCCCCCCCCCN2C[C@H]3C[C@@]3(COC(=O)Nc3ccccc3-c3ccc(O)c(Cl)c3)C2)ccc1O | microsomal CLint | 28 µL/min/mg
CS(=O)(=O)Nc1cc([C@@H](O)CNCCCCCCCCN2CCC(OC(=O)Nc3ccccc3-c3ccc(O)c(Cl)c3)CC2)ccc1O | microsomal CLint | 24 µL/min/mg
CS(=O)(=O)Nc1cc([C@@H](O)CNCCCCCCCCCN2CCC(OC(=O)Nc3ccccc3-c3ccc(O)c(F)c3)CC2)ccc1O | microsomal CLint | 30 µL/min/mg
Cc1ccc(NC(=O)OC2CCN(CCCCCCCCCNC[C@H](O)c3ccc(O)c(NS(C)(=O)=O)c3)CC2)c(-c2ccc(O)c(Cl)c2)c1 | microsomal CLint | 19 µL/min/mg
CS(=O)(=O)Nc1cc([C@@H](O)CNCCCCCCCCCN2CCC(OC(=O)Nc3ccccc3-c3cc(C#N)ccc3O)CC2)ccc1O | microsomal CLint | 3.7 µL/min/mg
Cc1ccc(-c2ccc(O)c(Cl)c2)c(NC(=O)OC2CCN(CCCCCCCCCNC[C@H](O)c3ccc(O)c(NS(C)(=O)=O)c3)CC2)c1 | microsomal CLint | 6 µL/min/mg
CS(=O)(=O)Nc1cc([C@@H](O)CNCCCCCCCCCN2CCC(OC(=O)Nc3ccccc3-c3cccc(F)c3O)CC2)ccc1O | microsomal CLint | < 2 µL/min/mg
CS(=O)(=O)Nc1cc([C@@H](O)CNCCCCCCCCCN2CCC(OC(=O)Nc3ccccc3-c3ccccc3)CC2)ccc1O | microsomal CLint | < 2 µL/min/mg
